Recorded measurements of self-splicing fitness (ln), one per entry
Procedure Details: self-splicing fitness, log relative to wild type (ln ratio); higher = more splicing; Tetrahymena group I intron in knt gene, E. coli kanamycin selection, DiMSum; sequences stand for … in CUCUCU…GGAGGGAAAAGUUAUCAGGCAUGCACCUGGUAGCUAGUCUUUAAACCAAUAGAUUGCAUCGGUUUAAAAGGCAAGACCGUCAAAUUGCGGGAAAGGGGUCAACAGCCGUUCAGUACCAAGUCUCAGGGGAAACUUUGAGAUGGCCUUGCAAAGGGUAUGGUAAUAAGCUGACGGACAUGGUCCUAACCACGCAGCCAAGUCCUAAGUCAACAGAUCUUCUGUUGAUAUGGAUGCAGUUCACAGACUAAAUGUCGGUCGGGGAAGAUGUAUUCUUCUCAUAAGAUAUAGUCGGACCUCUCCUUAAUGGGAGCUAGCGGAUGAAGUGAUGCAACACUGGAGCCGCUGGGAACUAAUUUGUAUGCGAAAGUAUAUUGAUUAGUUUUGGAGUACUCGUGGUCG;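 also: selection with 25 µg/mL kanamycin versus none on LB agar overnight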
Condition Set: 30 °C
Property Label: self-splicing fitness (ln)

Sequence Data	Property Label	Number
UAGGAGCAAUAUUACGAAUU	self-splicing fitness (ln)	-2.72
ACCAAGCAAUAUUACGUCAA	self-splicing fitness (ln)	-3.35
ACGAAGCAAUAUUACGGAUC	self-splicing fitness (ln)	-3.59
UUGUAGCAAUAUUACGCUGU	self-splicing fitness (ln)	-3.02
GAACAGCAAUAUUACGGCCG	self-splicing fitness (ln)	-2.39
CACAAGCAAUAUUACGAGCU	self-splicing fitness (ln)	-3.48
UAAAAGCAAUAUUACGUAAC	self-splicing fitness (ln)	-3.84
GGGUAGCAAUAUUACGGGAA	self-splicing fitness (ln)	-3.91
UUACAGCAAUAUUACGGGCU	self-splicing fitness (ln)	-3.86
AGUCAGCAAUAUUACGUUGG	self-splicing fitness (ln)	-2.9
UGGCAGCAAUAUUACGUUGG	self-splicing fitness (ln)	-2.33
CUGCAGCAAUAUUACGACAC	self-splicing fitness (ln)	-3.35
AACUAGCAAUAUUACGAGAU	self-splicing fitness (ln)	-2.52
CCCAAGCAAUAUUACGAGCC	self-splicing fitness (ln)	-3.79
AGCAAGCAAUAUUACGAAGC	self-splicing fitness (ln)	-3.28
GUUGAGCAAUAUUACGGUUU	self-splicing fitness (ln)	-4.2
GCACAGCAAUAUUACGAUAG	self-splicing fitness (ln)	-1.91
CAAUAGCAAUAUUACGAGUU	self-splicing fitness (ln)	-3.64
GGACAGCAAUAUUACGACAG	self-splicing fitness (ln)	-3.31
CGACAGCAAUAUUACGCGUU	self-splicing fitness (ln)	-4.77
UAUGAGCAAUAUUACGUUGU	self-splicing fitness (ln)	-4.16
UGGCAGCAAUAUUACGCGUG	self-splicing fitness (ln)	-1.25
CCGAAGCAAUAUUACGCGUG	self-splicing fitness (ln)	-3.05
CUGUAGCAAUAUUACGACGC	self-splicing fitness (ln)	-2.3
CGGGAGCAAUAUUACGGUUC	self-splicing fitness (ln)	-3.39
CUAAAGCAAUAUUACGCGAC	self-splicing fitness (ln)	-0.482
UUCCAGCAAUAUUACGAAGC	self-splicing fitness (ln)	-2.59
GGGUAGCAAUAUUACGUGUU	self-splicing fitness (ln)	-1.37
AGAUAGCAAUAUUACGGAAA	self-splicing fitness (ln)	-3.51
UAAUAGCAAUAUUACGCAUG	self-splicing fitness (ln)	-1.4
CGACAGCAAUAUUACGGAGG	self-splicing fitness (ln)	-1.91
UUCGAGCAAUAUUACGCGCA	self-splicing fitness (ln)	-0.15
AUUCAGCAAUAUUACGUCCA	self-splicing fitness (ln)	-1.19
UACCAGCAAUAUUACGCUGU	self-splicing fitness (ln)	-3.86
CAACAGCAAUAUUACGACCU	self-splicing fitness (ln)	-1.18
ACACAGCAAUAUUACGAAUC	self-splicing fitness (ln)	-3.22
UGUUAGCAAUAUUACGCGUG	self-splicing fitness (ln)	-0.492
AGGUAGCAAUAUUACGAGGU	self-splicing fitness (ln)	-3.75
AGAGAGCAAUAUUACGCUUA	self-splicing fitness (ln)	-2.39
UCCCAGCAAUAUUACGCCUC	self-splicing fitness (ln)	-3.11
AUCGAGCAAUAUUACGAUCC	self-splicing fitness (ln)	-2.13
ACCCAGCAAUAUUACGACAC	self-splicing fitness (ln)	-2.41
GUUCAGCAAUAUUACGGUAU	self-splicing fitness (ln)	-0.357
UUUCAGCAAUAUUACGUUUG	self-splicing fitness (ln)	-1.91
GGCAAGCAAUAUUACGUGUU	self-splicing fitness (ln)	-1.96
UAAAAGCAAUAUUACGCCUU	self-splicing fitness (ln)	-1.53
CUCUAGCAAUAUUACGCUCG	self-splicing fitness (ln)	-3.05
CGCUAGCAAUAUUACGUUAG	self-splicing fitness (ln)	-3.47
GCACAGCAAUAUUACGUACU	self-splicing fitness (ln)	-1.2
GACCAGCAAUAUUACGAGAG	self-splicing fitness (ln)	-3.61
CUAGAGCAAUAUUACGAGGC	self-splicing fitness (ln)	-3.08
AGUCAGCAAUAUUACGACUC	self-splicing fitness (ln)	-3.14
CCUUAGCAAUAUUACGCCGA	self-splicing fitness (ln)	-2.16
GGGCAGCAAUAUUACGAUCG	self-splicing fitness (ln)	-0.913
CAGAAGCAAUAUUACGUAGC	self-splicing fitness (ln)	-3.8
AGCCAGCAAUAUUACGGUUC	self-splicing fitness (ln)	-4.47
CCAAAGCAAUAUUACGGCUU	self-splicing fitness (ln)	-4.45
ACGGAGCAAUAUUACGAUCA	self-splicing fitness (ln)	-2.77
GGUAAGCAAUAUUACGUUAA	self-splicing fitness (ln)	-2.57
UUAAAGCAAUAUUACGUGGC	self-splicing fitness (ln)	-3.08
UUCUAGCAAUAUUACGACGA	self-splicing fitness (ln)	-0.439
GCACAGCAAUAUUACGGCCU	self-splicing fitness (ln)	-1.66
CAAAAGCAAUAUUACGCUAA	self-splicing fitness (ln)	-3.66
UGCGAGCAAUAUUACGCAAA	self-splicing fitness (ln)	-3.58
UCAAAGCAAUAUUACGUUGA	self-splicing fitness (ln)	-3.43
UGUUAGCAAUAUUACGUUGG	self-splicing fitness (ln)	-1.56
AAAGAGCAAUAUUACGAGCG	self-splicing fitness (ln)	-2.08

Where do these numbers come from? They come from the supplement of paper PMC7877785.
